Biological target: Cytochrome P450 2C19 (Homo sapiens)
Assay: Cytochrome P450 Family 2 Subfamily C Member 19 (CYP2C19) small molecule antagonists: luciferase reporter qHTS assay (AID 1671197); also: nearly all actives have a fitted effect of over 65% in size
Details: P450-Glo CYP2C19 enzyme, luciferin luminescence, 1 h; series mostly up to 115 µM
Excerpt: National Center for Advancing Translational Sciences [NCATS] U.S. Environmental Protection Agency [EPA] National Institutes of Environmental Health Sciences [NIEHS] National Toxicology Program [NTP] U.S. Food and Drug Administration [FDA] Cytochrome P450 (CYP) enzymes are membrane-bound hemeproteins that play a key role in metabolism of drugs and xenobiotics. […] The luciferin products formed are detected with a luciferin detection reagent, and the amount of light produced is proportional to CYP activity. […]
Records with an inconclusive call do not appear. The source made the active and inactive calls. Calls follow the shape of the dose curve; as a rule, active = well fitted inhibition curve with a large enough effect in the repeat runs; inconclusive = weak or mixed curves; inactive = no such curve, though single readings can be large or run the other way.
Assign a class; possible classes are y for active, n for inactive

| COMPOUND | CLASS |
| --- | --- |
| COC(=O)C1CCC(C(=O)OC)CC1 (configuration not stated) | n |

Could you please tell me the result logged for `CCCCOCCOCCOC(C)=O` in this assay?
n

Could you please tell me the result logged for `CCCCCCCCCCCCCC(=O)OC(C)C` in this assay?
n

Could you please tell me the result logged for `COc1ccccc1O` in this assay?
n

Could you please tell me the result logged for `CN/C(=C\[N+](=O)[O-])NCCSCc1ccc(CN(C)C)o1` in this assay?
n

Could you please tell me the result logged for `CC(=O)CCC(C)C` in this assay?
n

Could you please tell me the result logged for `C=C(C)OC(C)=O` in this assay?
n

Could you please tell me the result logged for `O=c1cc[nH]c(=O)[nH]1` in this assay?
n

Could you please tell me the result logged for CC(C)Cc1ccc(C(C)C(=O)O)cc1 (configuration not stated) in this assay?
n

Could you please tell me the result logged for `CN(C)Cc1cc(CN(C)C)c(O)c(CN(C)C)c1` in this assay?
n

Could you please tell me the result logged for `C=CC(=O)NC(C)(C)CS(=O)(=O)O` in this assay?
n

Could you please tell me the result logged for `CN(C)C=O` in this assay?
n

Could you please tell me the result logged for `COc1cc2c(c(OC)c1OC)-c1ccc(OC)c(=O)cc1[C@@H](NC(C)=O)CC2` in this assay?
n

Could you please tell me the result logged for `CC(=O)c1ccc(S(=O)(=O)NC(=O)NC2CCCCC2)cc1` in this assay?
n

Could you please tell me the result logged for `CCCCOC(=O)CCCCCCCCC(=O)OCCCC` in this assay?
n

Could you please tell me the result logged for `C=C(C)C(N)=O` in this assay?
n

Could you please tell me the result logged for CCCCCCCC(=O)OCC(O)CO (configuration not stated) in this assay?
y
